Assay: Plasma pharmacokinetics in mice
Type: in vivo, C57BL/6 mice
Settings: C57BL/6, mouse; IV 3 mg/kg; male; plasma; read-out: Vss
measuredQuantity: Vd

(Q) Supply reported Vd belonging to this compound: Cc1cccc(-c2cncc(Nc3ccc(Br)c(Cl)c3Cl)n2)c1C [Np75-4A22]
(A) 2.09 L/kg

----------
Experiment: Plasma pharmacokinetics in mice
Type: in vivo, C57BL/6 mice
Details: C57BL/6, mouse; IV 3 mg/kg; female; plasma; read-out: T1/2 (converted)
measuredQuantity: half-life (h)
# number only, unit h dropped from output

(Q) Supply reported half-life belonging to this compound: Cc1cccc(-c2cncc(Nc3ccc(Br)c(Cl)c3Cl)n2)c1C
(A) 8.64

----------
Test: Plasma pharmacokinetics in mice
Format: in vivo, C57BL/6 mice
Settings: C57BL/6, mouse; PO 10 mg/kg; female; plasma
measuredQuantity: Tmax (min)
# number only, unit min dropped from output

(Q) Supply reported Tmax belonging to this molecule: Cc1cccc(-c2cncc(Nc3ccc(Br)c(Cl)c3Cl)n2)c1C [Np75-4A22]
(A) 30

----------
Test: Plasma pharmacokinetics in mice
Format: in vivo, C57BL/6 mice
Details: C57BL/6, mouse; PO 10 mg/kg; male; plasma
measuredQuantity: bioavailability (%)
# number only, unit % dropped from output

(Q) Supply reported bioavailability belonging to this compound: Cc1cccc(-c2cncc(Nc3ccc(Br)c(Cl)c3Cl)n2)c1C
(A) 69

----------
Experiment: Plasma pharmacokinetics in mice
Format: in vivo, C57BL/6 mice
Conditions: C57BL/6, mouse; PO 10 mg/kg; male; plasma
measuredQuantity: Tmax (min)
# number only, unit min dropped from output

(Q) Supply reported Tmax belonging to this compound: Cc1cccc(-c2cncc(Nc3ccc(Br)c(Cl)c3Cl)n2)c1C
(A) 30

----------
Assay: Cell viability (Presto Blue), A875 NT
Type: cell-based, human
Conditions: human, A875 NT cells, Div17E5 1.5 uM; 2 days; read-out: Cell Viability, n1-n3
measuredQuantity: viability at 2 days, 1.5 uM
Just so you know, I need the unit written after the number.

(Q) Supply reported viability at 2 days, 1.5 uM belonging to this molecule: Oc1ccc(-c2cncc(Nc3ccc(Br)c(Cl)c3)n2)cc1
(A) 71%

----------
Assay: Cell viability (Presto Blue), A875 shp75
Assay type: cell-based, human
Details: human, A875 shp75 cells, Div17E5 1 uM; 2 days; read-out: Cell Viability, n1-n3
Protocol: To measure the cytotoxic effect of Div17E5, A875 NT or shp75 cells were seeded at 2000 cells per well (in 100 μL DMEM) in a 96-well plate and incubated for 12 h. […] Cellular fluorescence in each well was measured at 535 nm excitation and 615 nm emission using a microtiter plate reader. Data was converted into the relative cell viability (%) from the fluorescence of cells in each treatment relative to that of the DMSO control group (set as 100%).
measuredQuantity: viability at 2 days, 1 uM (%)
# number only, unit % dropped from output

(Q) Supply reported viability at 2 days, 1 uM belonging to this compound: Oc1ccc(-c2cncc(Nc3ccc(Br)c(Cl)c3)n2)cc1
(A) 101

----------
Assay: Cell viability (Presto Blue), A875 shp75
Type: cell-based, human
Conditions: human, A875 shp75 cells, Div17E5 1 uM; 2 days; N=3; read-out: Cell Viability, Mean
measuredQuantity: viability at 2 days, 1 uM (%)
# number only, unit % dropped from output

(Q) Supply reported viability at 2 days, 1 uM belonging to this molecule: Oc1ccc(-c2cncc(Nc3ccc(Br)c(Cl)c3)n2)cc1
(A) 107
